I'd be grateful if you could share measured Screen- Rabbit/No Protein for these entries.
- Tested on: rabbit vWF A1 domain (SEQ ID NO 6)
- Sequence (as listed by the source): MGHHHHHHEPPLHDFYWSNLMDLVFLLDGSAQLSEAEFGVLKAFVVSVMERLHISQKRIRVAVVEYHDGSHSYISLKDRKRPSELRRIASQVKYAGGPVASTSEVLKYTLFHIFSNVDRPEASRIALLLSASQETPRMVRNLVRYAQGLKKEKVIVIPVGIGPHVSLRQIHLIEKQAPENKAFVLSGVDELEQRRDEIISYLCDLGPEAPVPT
- run description: 3-point dot blot screen, rabbit vWF A1 domain
- Assay type: binding
- test context: DNA SELEX 1 aptamers; 100 nM rabbit vWF A1 domain; ratio of fraction bound with target to without
Would you mind answering with just the numeric figure?

Please report the measured Screen- Rabbit/No Protein for AMX199.F10: DNA SELEX 1 aptamer clone (nucleic acid, DNA, backbone not given here, DNA SELEX 1 aptamer clone) DNA: CTACCTACGATCTGACTAGCGAAACACTAGGTTGGTTAGGATTGGTGTGTTTCCGTTCTGCTTACTCTCATGTAGTTCC
1.24

Please report the measured Screen- Rabbit/No Protein for AMX200.A7: DNA SELEX 1 aptamer clone (nucleic acid, DNA, backbone not given here, DNA SELEX 1 aptamer clone) DNA: CTACCTACGATCTGACTAGCGGAATGAGAATGCTGATGGATTGTTCAGGTCTGCTGGCTGCTTACTCTCATGTAGTTCC
0.96

Please report the measured Screen- Rabbit/No Protein for AMX202.B8: DNA SELEX 1 aptamer clone (nucleic acid, DNA, backbone not given here, DNA SELEX 1 aptamer clone) DNA: CTACCTACGATCTGACTAGCGGAATGAGTATGCTGATGGATTGCTCAGGTCTGCTGGCTGCTTACTCTCATGTAGTTCC
1.41

Please report the measured Screen- Rabbit/No Protein for AMX199.B3: DNA SELEX 1 aptamer clone (nucleic acid, DNA, backbone not given here, DNA SELEX 1 aptamer clone) DNA: CTACCTACGATCTGACTAGCGGAATGAGAATGCTGATGGATTGCTCAGGTCTGCTGGCTGCTTACTCTCATGTAGTTCC
1.99

Please report the measured Screen- Rabbit/No Protein for AMX199.C2: DNA SELEX 1 aptamer clone (nucleic acid, DNA, backbone not given here, DNA SELEX 1 aptamer clone) DNA: CTACCTACGATCTGACTAGCGGAATGAGAATGCTGGTGGATTGCCCAGGTCTGCTGGCTGCTTACTCTCATGTAGTTCC
4.61

Please report the measured Screen- Rabbit/No Protein for AMX200.D3: DNA SELEX 1 aptamer clone (nucleic acid, DNA, backbone not given here, DNA SELEX 1 aptamer clone) DNA: CTACCTACGATCTGACTAGCGCAATGAGGATGCTGATGGATTGCTCAGGTCTGCTGGCTGCTTACTCTCATGTAGTTCC
2.41

Please report the measured Screen- Rabbit/No Protein for AMX199.F6: DNA SELEX 1 aptamer clone (nucleic acid, DNA, backbone not given here, DNA SELEX 1 aptamer clone) DNA: CTACCTACGATCTGACTAGCGAAACACTAGGTTGGTTAGGATTGGTGTGTTCCCGCTCTGCTTACTCTCATGTAGTTCC
1.30

Please report the measured Screen- Rabbit/No Protein for AMX200.H8: DNA SELEX 1 aptamer clone (nucleic acid, DNA, backbone not given here, DNA SELEX 1 aptamer clone) DNA: CTACCTACGATCTGACTAGCTGAGTAGTCAGTAATTTTTTATTATGGTTTGGTGGGCCTGGCTTACTCTCATGTAGTTCC
1.27
